Recorded AUC(0-t) by entry
Experiment: Pharmacokinetic studies in rats (plasma, brain, CSF)
Type: in vivo
Conditions: male, Sprague Dawley, rat; brain, oral, rats, normalized to 25 mg/kg; read-out: Exposure/trapezoid AUC0-18
Readout name: AUC(0-t) (ng·h/mL)

{"columns": ["Compound", "Test result"],
 "data": [
  ["CC1(C)OB(O)c2cc(NC(=O)c3ccc(F)cc3C(F)(F)F)ccc21 [compound 82]", 120000],
  ["O=C(Nc1ccc2c(c1)B(O)OC2)c1ccc(F)cc1C(F)(F)F [E19]", 12700]
]}

* * *

Assay: Pharmacokinetic studies in rats (plasma, brain, CSF)
Format: in vivo
Settings: male, Sprague Dawley, rat; brain, oral, rats, normalized to 25 mg/kg; read-out: Exposure/trapezoid AUC0-inf
Readout name: AUC(0-inf) (ng·h/mL)

{"columns": ["Chem smiles", "Test result"],
 "data": [
  ["O=C(Nc1ccc2c(c1)B(O)OC2)c1ccc(F)cc1C(F)(F)F", 12700],
  ["CC1(C)OB(O)c2cc(NC(=O)c3ccc(F)cc3C(F)(F)F)ccc21", 152000]
]}

* * *

Experiment: L929 cytotoxicity evaluation (resazurin)
Type: cell-based
Conditions: mouse, L929 mouse fibroblast cells; 72 hrs incubation; read-out: Cytotox L-929 IC50
Readout name: IC50 at 72 h

{"columns": ["Molecule", "Readout name", "Test result"],
 "data": [
  ["CC1(C)OB(O)c2cc(NC(=O)c3cccc(Cl)c3F)ccc21 [compound 70]", "IC50 at 72 h", "> 10 µg/mL"],
  ["CC1(C)OB(O)c2cc(NC(=O)c3cc(C(F)(F)F)ccc3F)ccc21 [compound 85]", "IC50 at 72 h", "> 10 µg/mL"],
  ["CC1OB(O)c2cc(NC(=O)c3ccc(F)cc3C(F)(F)F)ccc21 (centres unmarked) [compound 1]", "IC50 at 72 h", "1.21 µg/mL"],
  ["CCCCCOc1ccc(C(=O)Nc2ccc3c(c2)B(O)OC3(C)C)cc1 [compound 50]", "IC50 at 72 h", "> 10 µg/mL"],
  ["CC1(C)OB(O)c2cc(NC(=O)c3cccc(Cl)c3Cl)ccc21 [compound 66]", "IC50 at 72 h", "> 10 µg/mL"]
]}

* * *

Experiment: Pharmacokinetic studies in mice (plasma, brain)
Type: in vivo
Conditions: male, CD-1, mouse, 8 mg/kg; brain, oral, mice (Table 3a); read-out: t½ (converted)
half-life values by entry

{"columns": ["Chem smiles", "half-life"],
 "data": [
  ["O=C(Nc1ccc2c(c1)B(O)OC2)c1ccc(F)cc1Cl", "96 min"],
  ["CC1(C)OB(O)c2cc(NC(=O)c3ccc(F)cc3Cl)ccc21", "84 min"]
]}

* * *

Experiment: Pharmacokinetic studies in mice (plasma, brain)
Assay type: in vivo
Conditions: male, CD-1, mouse, 8 mg/kg; plasma, oral, mice (Table 3a); read-out: Oral Clearance Cl/F (converted)

{"columns": ["Chem smiles", "Value units", "CL/F"],
 "data": [
  ["O=C(Nc1ccc2c(c1)B(O)OC2)c1ccc(F)cc1Cl", "mL/min/kg", 28.8],
  ["CC1(C)OB(O)c2cc(NC(=O)c3ccc(F)cc3Cl)ccc21", "mL/min/kg", 7.32]
]}

* * *

Documented AUC(0-t) across a set of compounds
Assay: Pharmacokinetic studies in rats (plasma, brain, CSF)
Format: in vivo
Conditions: male, Sprague Dawley, rat; plasma, oral, rats, normalized to 25 mg/kg; read-out: Exposure/trapezoid AUC0-18
Readout name: AUC(0-t) (µg·h/mL)

{"columns": ["Chem smiles", "Readout name", "Test result"],
 "data": [
  ["O=C(Nc1ccc2c(c1)B(O)OC2)c1ccc(F)cc1C(F)(F)F", "AUC(0-t)", 98.3],
  ["CC1(C)OB(O)c2cc(NC(=O)c3ccc(F)cc3C(F)(F)F)ccc21", "AUC(0-t)", 272]
]}
